Please provide measured inhibition at 10 µM for the entries that follow.
molecular target: UniProt P30542; experiment: Radioligand binding at hA1AR, CHO cell membranes, [3H]R-PIA; settings: read-out: hA1AR % inhibition
Sequence (P30542 whole entry): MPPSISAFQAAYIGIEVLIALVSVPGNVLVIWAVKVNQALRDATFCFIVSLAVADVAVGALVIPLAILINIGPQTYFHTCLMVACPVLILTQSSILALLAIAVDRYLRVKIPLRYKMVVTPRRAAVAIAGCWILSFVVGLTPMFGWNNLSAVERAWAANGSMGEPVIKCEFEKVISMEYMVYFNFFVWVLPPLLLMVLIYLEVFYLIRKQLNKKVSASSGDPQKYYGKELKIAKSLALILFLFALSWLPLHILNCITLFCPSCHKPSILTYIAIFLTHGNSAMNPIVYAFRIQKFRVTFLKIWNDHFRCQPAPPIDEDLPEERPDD
Write it as a number; the unit % goes unstated.

Could you tell me which inhibition at 10 µM is on file for CNC(=O)[C@@]12C[C@@H]1[C@@H](n1cnc3c(NC)nc(C#Cc4cnn(C)c4)nc31)[C@H](O)[C@@H]2O [Compound 18] ?
35

Could you tell me which inhibition at 10 µM is on file for CCc1ccc(C#Cc2nc(NC)c3ncn([C@H]4[C@H](O)[C@H](O)[C@]5(C(=O)NC)C[C@H]45)c3n2)o1 [Compound 34] ?
18

Could you tell me which inhibition at 10 µM is on file for CNC(=O)[C@@]12C[C@@H]1[C@@H](n1cnc3c(NC)nc(C#Cc4ncccn4)nc31)[C@H](O)[C@@H]2O [Compound 6] ?
25

Could you tell me which inhibition at 10 µM is on file for CNC(=O)[C@@]12C[C@@H]1[C@@H](n1cnc3c(NC)nc(C#Cc4cccs4)nc31)[C@H](O)[C@@H]2O [Compound 8] ?
25

Measured values drawn from patent US10577368B2 for this set.
